Assay procedure: BSK_4H_Eotaxin3: BioMAP Diversity Plus: 4H Assay for Eotaxin 3 Biomarker Activity (AID 2283000)
Assay conditions: primary human endothelial cells (HUVEC); actives raise or lower the signal
Activity calls are given as the source filed them. The calls were made as follows: active = hit-call score of the fitted dose curve at least 0.9, where 1 is the maximum; inactive = score below 0.9.
Outcomes: t (active), f (inactive)

                                    molecule  category_label
 0  CS(=O)(=O)c1cc(C(F)(F)F)ccc1C(=O)c1cnoc1C1CC1               f
 1  CC(C)(C)C(=O)C(Oc1ccc(Cl)cc1)n1cncn1 (stereo unspecified)               f
 2  CC(C)NC(=O)N1CC(=O)N(c2cc(Cl)cc(Cl)c2)C1=O               f
 3            Cc1nc(N(C)C)nc(OC(=O)N(C)C)c1C               f
 4  CC1(C)CCC(=Cc2ccc(Cl)cc2)C1(O)Cn1cncn1 (stereo unspecified)               f
 5                             O=P(O)(O)CCCl               f
 6             CC(C)N1C(=O)c2ccccc2NS1(=O)=O               f
 7  C=CCOC(=O)C(C)(C)OC(=O)c1cc(-n2c(=O)cc(C(F)(F)F)n(C)c2=O)ccc1Cl               f
 8                CC(C)Nc1nc(Cl)nc(NC(C)C)n1               f
 9  CCCCC(C#N)(Cn1cncn1)c1ccc(Cl)cc1 (stereo unspecified)               f
10         N#Cc1c[nH]cc1-c1cccc2c1OC(F)(F)O2               t

---

Assay procedure: BSK_KF3CT_SRB: Viability Assessment in the BioMAP Diversity Plus: KF3CT Assay (AID 2283069);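 also: total protein by sulforhodamine B staining as a cytotoxicity measure; read 24 h after compound addition; fitted for both signal gain and loss against DMSO baseline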
Assay conditions: primary human keratinocytes with fibroblasts
Activity calls are given as the source filed them. How the source made its calls: active means hit-call score of the fitted dose curve at least 0.9, where 1 is the maximum; inactive means score below 0.9.
Outcomes: t = active, f = inactive

In [3]: df
Out[3]:
                                   compound  category_label
0  CCCC(=NOCC)C1=C(O)CC(CC(C)SCC)CC1=O (configuration not stated)               f
1  CC(C)(C)C(=O)C(Oc1ccc(Cl)cc1)n1cncn1 (configuration not stated)               f
2      COC(=O)NC(=S)Nc1ccccc1NC(=S)NC(=O)OC               f
3  O=C1C2CC=CCC2C(=O)N1SC(Cl)(Cl)Cl (configuration not stated)               t
4                CC1(C)CON(Cc2ccccc2Cl)C1=O               f
5                             O=P(O)(O)CCCl               f
6  COCC(=O)N(c1c(C)cccc1C)C(C)C(=O)OC (configuration not stated)               f

---

Read-out: Alpha-fetoprotein (AFP) gene, AFP (gene 174)
Assay procedure: LTEA_HepaRG_AFP: Life Technologies and Expression Analysis (LTEA) Assay for Alpha-fetoprotein (AFP) gene using HepaRG (AID 2283472);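 as to AC50: AFP transcript by TaqMan qRT-PCR normalized to ACTB GAPDH and POLR2A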
Assay conditions: mRNA level, 48 h; actives raise or lower the signal
Calls of active or inactive are those of the source. The calls were made as follows: active = hit-call score of the fitted dose curve at least 0.9, where 1 is the maximum; inactive = score below 0.9.
Measurement type: AC50

                                    compound          reported
 0  CCOc1nc(F)cc2nc(S(=O)(=O)Nc3c(Cl)cccc3Cl)nn12  25.3 µM (active)
 1  COc1cc(OC)nc(NC(=O)NS(=O)(=O)c2ncccc2OCC(F)(F)F)n1          inactive
 2  CC(C)C1(C)N=C(c2ncccc2C(=O)O)NC1=O (configuration not stated)          inactive
 3              CNC(=O)N(C)c1nnc(C(C)(C)C)s1          inactive
 4      Cc1ccc(N=CN(C)C=Nc2ccc(C)cc2C)c(C)c1          inactive
 5  CCCN(CC)CC1COC2(CCC(C(C)(C)C)CC2)O1 (configuration not stated)          inactive
 6                 N#CN=C1SCCN1Cc1ccc(Cl)nc1          inactive
 7  CCCCC(C#N)(Cn1cncn1)c1ccc(Cl)cc1 (configuration not stated)    67 µM (active)
 8         N#Cc1c[nH]cc1-c1cccc2c1OC(F)(F)O2  73.3 µM (active)
 9  CC(C)=CC1C(C(=O)OCc2coc(Cc3ccccc3)c2)C1(C)C (configuration not stated)          inactive
10                      COc1cc(Cl)c(OC)cc1Cl          inactive
11             CC(C)N1C(=O)c2ccccc2NS1(=O)=O          inactive

meta.source: PubChem BioAssay (EPA / NIEHS)
